target: UniProtKB P0C6X7
pIC50: −log10 of the molar value.
Catalogue of pIC50 readings, one per entry.
recorded.metric: pIC50

[[record]]
compound_structure = "CC(=O)Oc1cc2c(cc1C(C)C)CC[C@H]1[C@](C)(CO)CCC[C@]21C"
result_value = 3.89

[[record]]
compound_structure = "O=c1cc(-c2ccc(O)cc2)oc2cc(O)cc(O)c12"
result_value = 3.55

[[record]]
compound_structure = "C=C[C@@]1(C)CC[C@H]2C(=CC[C@@H]3[C@]2(C)CCC[C@@]3(C)C(=O)O)C1"
result_value = 3.55


* * *

In what follows, each item is paired with its Ki for UniProt:P0C6X7.
recorded.metric: Ki (µM)

[[record]]
compound_structure = "COc1cc(O)c2c(=O)cc(-c3ccc(OC)c(-c4c(O)cc(O)c5c(=O)cc(-c6ccc(O)cc6)oc45)c3)oc2c1"
recorded_metric = "Ki"
result_value = 30.2

[[record]]
compound_structure = "COc1ccc(-c2cc(=O)c3c(O)cc(O)cc3o2)cc1-c1c(O)cc(O)c2c(=O)cc(-c3ccc(O)cc3)oc12"
recorded_metric = "Ki"
result_value = 80.4

[[record]]
compound_structure = "O=c1cc(-c2ccc(O)c(-c3c(O)cc(O)c4c(=O)cc(-c5ccc(O)cc5)oc34)c2)oc2cc(O)cc(O)c12"
recorded_metric = "Ki"
result_value = 13.8

[[record]]
compound_structure = "COc1ccc(-c2cc(=O)c3c(O)cc(O)c(-c4cc(-c5cc(=O)c6c(O)cc(OC)cc6o5)ccc4OC)c3o2)cc1"
recorded_metric = "Ki"
result_value = 35.6

